Origin of the recorded values: PubChem BioAssay (NCI)

test system: UACC-62 melanoma; assay: NCI-60 one-dose screen, 48 h (100 = growth as untreated, 0 = no growth, -100 = all killed); conditions: 10 µM unless noted
This is part of a sample that, as a whole, favours compounds with a hit. Of some 83,000 tested, about 20% had one in any assay.
Parameter: growth (%)
One number for each entry, in %.

Lab note: each compound below needs its growth filled in.
1. Cc1ccc(S(=O)(=O)c2nc(-c3ccccc3)oc2S(C)(=O)=O)cc1
2. CCC(=O)Oc1ccc(/C(=C(/C)Cc2cccc(OC)c2)c2ccc(OCCN(C)C)cc2)cc1
3. COc1ccc(N2CCN(Cc3cc(C(=O)/C=C/c4c[nH]c5ccccc45)ccc3O)CC2)cc1
4. CCCCCCCCCCCCNC(=O)[C@H]1CSC(c2cc(Br)cs2)N1 (stereo partly specified)

75.7
103
101
-84.5

Dear colleague, could you please provide growth for the compounds listed below?
1. N/C(=N\C(N)=N\c1nc2ccccc2s1)c1cccc(Br)c1
2. COc1ccc(-c2ccc(C)n2-c2ccc(-c3nc4ccccc4s3)cc2)cc1

1: 84.7; 2: 86.1

----------
system: SNB-75 CNS; test: NCI-60 one-dose screen, 48 h; settings: 10 µM
This is part of a sample that, as a whole, favours compounds with a hit. Of some 83,000 tested, about 20% had one in any assay. Calls of active or inactive are those of the source. The calls were made as follows: active = growth percent below 10; inactive = the rest.
Write down one outcome, taken from active, inactive

Recorded results for 5 compounds are shown here.
# Smiles text, Tested on, Class label
records = [
    ("Cc1nn(-c2ccc([N+](=O)[O-])cc2)c2ncnc(NCCc3ccccc3)c12", "SNB-75 CNS", "inactive"),
    ("COc1ccc2[nH]c(=O)c3c4ccccc4cn3c2c1", "SNB-75 CNS", "inactive"),
    ("O=C1Nc2ccc3c(c2/C1=C\\c1cc2c(cc1Br)OCO2)OCO3", "SNB-75 CNS", "active"),
    ("COC(=O)c1cc(=O)nc(N/N=C/c2ccco2)s1", "SNB-75 CNS", "inactive"),
    ("C[n+]1c(/C=C/c2c(O)ccc3ccccc23)ccc2ccccc21", "SNB-75 CNS", "inactive"),
]

Now let's try a different one.
Recorded test call requested for COc1ccc2c(c1)[nH]c(=O)c1c3cc(OC)ccc3cn21 inactive

----------
system: SF-268 CNS; assay: NCI-60 one-dose screen, 48 h (100 = growth as untreated, 0 = no growth, -100 = all killed); conditions: 10 µM unless noted
Compounds without any hit were thinned out: in the full panel of roughly 83,000, 20% have a hit.
Exercise: for every item that follows, state its recorded growth.
Answers are plain numbers, in %.

# Compound, Parameter, U, Measured number
data = [
    ("O=C(NNC(=O)N1c2ccccc2C=Cc2ccccc21)c1ccc2ccccc2c1", "growth", "%", 91.4),
    ("O=C(NS(=O)(=O)c1ccc2ccccc2c1)n1cc(-c2ccncc2)c(-c2ccc(Cl)c(O)c2)n1", "growth", "%", 96.2),
    ("NC(=N\\N=C/c1ccc(O)cc1)/C(N)=N\\N=C/c1ccc(O)cc1", "growth", "%", 58.4),
    ("O=C1c2ccccc2-c2ccccc2C1(Cl)Cl", "growth", "%", -83.8),
    ("O=C(c1ccccc1)c1c(/C=C/c2ccccc2)c2ccccc2[nH]c1=O", "growth", "%", 86.2),
]

Below is a list of compounds. For each, state its recorded growth.
1. COc1cccc(/C=C2\Oc3cc(OCCCN4CCCC4)ccc3C2=O)c1
2. C=C[C@@H]1C[C@H](O)Cc2c(C)cc(C)cc2N1

88.3
97.5

State recorded growth for all listed compounds.
1. CNc1ccc(Br)c2c1C(=O)c1ccccc1C2=O
2. CCC1=CCC[C@@]2(C)CCC[C@@]3(C)CCCC(C)(C)[C@]1([O-])[O+]32

1: 115; 2: 107
